measurement_type: pIC50
Here pIC50 is given on a logarithmic scale as minus log10 of the concentration in mol/L.

Query block: Answer with pIC50 of O=C(O)CNC(=O)C(=O)O measured for FIH (Homo sapiens, UniProt Q9NWT6).
Result block: 4.40
